- test_summary: Metabolic stability test: liver microsomal stability assay
- Format: in vitro ADME, mouse
- condition_label: mouse liver microsomes 0.5 mg protein/mL, compound 1 µM, absence of NADPH
Starred links: 1 amine or outer side, 2 acyl side, 3 side chain; linkers in the order of their positions; H or OH if unused. Positions of bridges follow the written chain, without caps; N, C: chain ends. Non-standard residues stand in square brackets, D forms with d. Residues, ends and D or L forms follow the SMILES beside them. *: point of attachment. NMeF = CN[C@@H](Cc1ccccc1)C(=O)O; NMeGABA = CN(CCCC(=O)[*:2])[*:1]; NMeI = CC[C@H](C)[C@H](NC)C(=O)O; NMeT = CN[C@H](C(=O)O)[C@@H](C)O; hPhe = N[C@@H](CCc1ccccc1)C(=O)O; NMeβAla = CN(CCC(=O)[*:2])[*:1]; NMeD = CN[C@@H](CC(=O)O)C(=O)O; NMeL = CN[C@@H](CC(C)C)C(=O)O; NMeV = CN[C@H](C(=O)O)C(C)C; d(β3hA) = C[C@@H](N)CC(=O)O; NMeA = CN[C@@H](C)C(=O)O; Piperidide = C1CCN(*)CC1; Abu = CC[C@H](N)C(=O)O; βAla = NCCC(=O)O; Sar = CNCC(=O)O
observed_property: Mouse Hepatic Microsome CLh,int NADPH(-) (µL/min/mg Protein)
Note: unit µL/min/mg Protein is implicit; provide only the numeric part.

Past entries and their recorded results:
CC[C@H](C)[C@H]1C(=O)N[C@@H]([C@@H](C)O)C(=O)N(C)CC(=O)N(C)[C@@H](CC(C)C)C(=O)N[C@@H](CC(C)C)C(=O)N[C@H](C(=O)N2CCCCC2)CC(=O)N(C)[C@@H](C)C(=O)N[C@@H](CC(C)C)C(=O)N(C)[C@@H](CC(C)C)C(=O)N(C)CCC(=O)N(C)[C@@H](Cc2ccccc2)C(=O)NCCC(=O)N(C)[C@@H](Cc2ccccc2)C(=O)N1C [pd113] ([NMeA]L[NMeL][NMeβAla][NMeF][βAla][NMeF][NMeI]T[Sar][NMeL]LD-Piperidide; lactam N-13) | 16.4
CC[C@@H]1NC(=O)[C@H](C(C)C)N(C)C(=O)[C@H](C(C)C)NC(=O)[C@H](C)N(C)C(=O)CCN(C)C(=O)[C@H](CCc2ccccc2)NC(=O)[C@H](CC(C)C)N(C)C(=O)[C@H]([C@@H](C)CC)NC(=O)CN(C)C(=O)C[C@@H](C(=O)N2CCCCC2)N(C)C(=O)[C@H](CC(C)C)NC(=O)[C@H](CC(C)C)N(C)C(=O)[C@H]([C@@H](C)O)NC(=O)[C@H](Cc2ccccc2)N(C)C1=O [pd088] ([Sar]I[NMeL][hPhe][NMeβAla][NMeA]V[NMeV][Abu][NMeF]T[NMeL]L[NMeD]-Piperidide; lactam N-14) | 24.2

For the next question, use this molecule.
For the molecule CC[C@@H]1NC(=O)[C@H](C)N(C)C(=O)[C@H](C(C)C)N(C)C(=O)[C@H]([C@@H](C)CC)NC(=O)[C@H](C)N(C)C(=O)CCCN(C)C(=O)C[C@@H](C)NC(=O)[C@H](C(C)C)N(C)C(=O)[C@H](CCc2ccccc2)NC(=O)CCN(C)C(=O)[C@H]([C@@H](C)O)N(C)C(=O)[C@H](CC(C)C)N(C)C(=O)[C@H]([C@@H](C)CC)NC(=O)[C@H](Cc2ccccc2)N(C)C1=O [pd055] (cyclo([Abu][NMeF]I[NMeL][NMeT][NMeβAla][hPhe][NMeV][d(β3hA)][NMeGABA][NMeA]I[NMeV][NMeA])) , give its reported Mouse Hepatic Microsome CLh,int NADPH(-).
15.0

Where these numbers come from: patent EP4768499A1
